Reported values of HLM for individual entries
Conditions: human, microsomes, 1 μM, pH 7.4
attribute_measured: HLM

# compound, attribute_measured, reported_measurement
data = [
    ("C#Cc1cccc(C[C@H](NC(=O)COC)[C@H](O)CN[C@H]2C[C@]3(CCOC3)Oc3ncc(CC(C)(C)C)cc32)c1 [compound 868]", "HLM", "14 µL/min/mg"),
    ("COCC(=O)N[C@@H](Cc1cccc(-c2nccs2)c1)[C@H](O)CN[C@H]1C[C@@]2(CCOC2)Oc2ncc(CC(C)(C)C)cc21 [compound 846]", "HLM", "82 µL/min/mg"),
    ("COCC(=O)N[C@@H](Cc1cc(F)cc(F)c1)[C@H](O)CN[C@H]1CC2(CCC2)Oc2c1cc([C@H]1CC1(C)C)nc2-c1ccncc1 [compound 703]", "HLM", "32 µL/min/mg"),
    ("COCC(=O)N[C@@H](Cc1ccc(F)cc1)[C@H](O)CN[C@H]1CC2(CCC2)Oc2c1cc(CC(C)(C)C)nc2-c1c[nH]cn1", "HLM", "37 µL/min/mg"),
]

###

Reported values of IC50 for individual entries
Target: CYP3A4 (CYP3A) (Homo sapiens);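 further: inhibition of CYP3A-mediated 1-hydroxymidazolam formation after 10 min incubation with NADPH, quantified by HPLC MS relative to metabolite produced without test compound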
Sequence (P08684 2-503): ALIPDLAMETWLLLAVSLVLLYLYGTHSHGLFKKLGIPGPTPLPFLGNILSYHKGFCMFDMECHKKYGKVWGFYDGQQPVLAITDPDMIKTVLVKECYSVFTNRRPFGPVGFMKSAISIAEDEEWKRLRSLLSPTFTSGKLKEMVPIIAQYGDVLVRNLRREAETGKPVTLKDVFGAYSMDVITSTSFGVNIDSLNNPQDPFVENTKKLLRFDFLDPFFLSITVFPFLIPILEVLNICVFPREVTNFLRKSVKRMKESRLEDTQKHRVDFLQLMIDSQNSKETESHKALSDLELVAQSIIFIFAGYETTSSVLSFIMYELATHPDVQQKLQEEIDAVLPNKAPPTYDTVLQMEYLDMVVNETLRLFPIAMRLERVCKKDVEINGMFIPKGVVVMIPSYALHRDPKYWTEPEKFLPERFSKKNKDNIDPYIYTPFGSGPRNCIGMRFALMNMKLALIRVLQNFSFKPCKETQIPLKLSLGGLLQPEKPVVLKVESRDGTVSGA
Test: in vitro
Conditions: microsomes, pH 7.4

# query_smiles, IC50 (µM)
rows = [
    ("C#Cc1cnc2c(c1)[C@@H](NC[C@@H](O)[C@H](Cc1cc(F)cc(-c3nccs3)c1)NC(=O)COC)CC1(CCC1)O2", 0.2),
    ("CCCc1cnc2c(c1)[C@@H](NC[C@@H](O)[C@H](Cc1cc(F)cc(-c3nccs3)c1)NC(=O)COC)CC1(CCC1)O2", 0.3),
    ("CC(C)(C)Cc1cnc2c(c1)[C@@H](NC[C@@H](O)[C@H](Cc1cc(F)cc(-c3nccs3)c1)NC(=O)CF)CC1(CCC1)O2", 0.2),
    ("COCC(=O)N[C@@H](Cc1cccc(F)c1)[C@H](O)CN[C@H]1CC2(CCC2)Oc2c1cc([C@@H](O)C(C)(C)C)cc2-n1ccnc1", 0.1),
    ("CO[C@H](C)C(=O)N[C@@H](Cc1ccc2c(c1)OCO2)[C@H](O)CN[C@H]1CC2(CCC2)Oc2ncc([C@H]3CC3(C)C)cc21", 0.1),
    ("Cc1ccc(CN2CCO[C@H](C(=O)N[C@@H](Cc3ccc(F)cc3)[C@H](O)CN[C@H]3CC4(CCC4)Oc4ncc(CC(C)(C)C)cc43)C2)cc1", 0.2),
]

###

Target: Beta Secretase enzyme (BACE) (Homo sapiens, UniProt P56817)
Sequence (P56817 46-501): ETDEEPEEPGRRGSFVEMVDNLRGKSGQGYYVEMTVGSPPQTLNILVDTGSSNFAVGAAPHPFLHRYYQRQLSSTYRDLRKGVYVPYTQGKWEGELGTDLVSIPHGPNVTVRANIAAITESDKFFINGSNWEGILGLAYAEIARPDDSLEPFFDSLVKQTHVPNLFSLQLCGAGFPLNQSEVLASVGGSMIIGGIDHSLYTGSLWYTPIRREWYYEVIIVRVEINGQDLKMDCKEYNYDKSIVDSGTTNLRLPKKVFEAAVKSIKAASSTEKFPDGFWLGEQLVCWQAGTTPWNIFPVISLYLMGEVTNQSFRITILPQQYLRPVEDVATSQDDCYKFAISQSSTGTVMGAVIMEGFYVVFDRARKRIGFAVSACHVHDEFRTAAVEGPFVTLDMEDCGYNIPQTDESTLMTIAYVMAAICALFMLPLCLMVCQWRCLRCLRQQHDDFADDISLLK
Test: In vitro enzymatic BACE FRET (fluorescence resonance energy transfer) assay
Format: biochemical
Conditions: BACE enzyme assay; read-out: BACE1 FRET assay (IC50)
pIC50: −log10 of the molar value.
Reported values of pIC50 for individual entries
attribute_measured: pIC50

# compound, target_or_system, attribute_measured, reported_measurement
rows = [
    ("COCC(=O)N[C@@H](Cc1ccc(F)cc1)[C@H](O)CN[C@H]1CC2(CCC2)Oc2ncc(CC(C)(C)C(F)F)cc21", "Beta Secretase enzyme (BACE) (Homo sapiens, UniProt P56817)", "pIC50", 8.05),
    ("COCC(=O)N[C@@H](Cc1ccccc1)[C@H](O)CNC1CC2(CC(F)(F)C2)Oc2ncc(CC(C)(C)C)cc21 (stereo partly drawn)", "Beta Secretase enzyme (BACE) (Homo sapiens, UniProt P56817)", "pIC50", 8.52),
    ("COCC(=O)N[C@@H](Cc1ccc(F)cc1)[C@H](O)CN[C@H]1CC2(CCC2)Oc2ccc(CC(C)(C)C)nc21", "Beta Secretase enzyme (BACE) (Homo sapiens, UniProt P56817)", "pIC50", 5.43),
    ("CNc1nc(CC(C)(C)C)cc2c1OC1(CCC1)C[C@@H]2NC[C@@H](O)[C@H](Cc1ccc2c(c1)OCO2)NC(C)=O", "Beta Secretase enzyme (BACE) (Homo sapiens, UniProt P56817)", "pIC50", 7.32),
    ("COC(C)C(=O)NC(Cc1cc(F)cc(F)c1)C(O)CNC1CC2(CCC2)Oc2ncc(CC(C)(C)C)cc21 (stereo not drawn) [compound 102]", "Beta Secretase enzyme (BACE) (Homo sapiens, UniProt P56817)", "pIC50", 8.28),
    ("CC(C)(C)Cc1cnc2c(c1)[C@@H](NC[C@@H](O)[C@H](Cc1cc(F)cc(F)c1)NC(=O)OCc1cncs1)CC1(CCC1)O2", "Beta Secretase enzyme (BACE) (Homo sapiens, UniProt P56817)", "pIC50", 8.31),
]

###

Target: Beta Secretase enzyme (BACE) (Homo sapiens, UniProt P56817)
Assay: In vitro enzymatic BACE FRET (fluorescence resonance energy transfer) assay;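 further: fluorescence read after 1 h with 50 nM quenched peptide substrate spanning the BACE cleavage site, in pH 4.2 acetate buffer containing 10% DMSO and nonionic detergent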
Type: biochemical
Conditions: BACE enzyme assay; read-out: BACE1 FRET assay (IC50)

# query_smiles, target_or_system, IC50 / nM
rows = [
    ("CNc1nc(CC(C)(C)C)cc2c1OC1(CCC1)C[C@@H]2NC[C@@H](O)[C@H](Cc1cccc(F)c1)NC(=O)COC", "Beta Secretase enzyme (BACE) (Homo sapiens, UniProt P56817)", 38.7),
    ("COc1cc(C[C@H](NC(C)=O)[C@H](O)CN[C@H]2CC3(CCC3)Oc3ncc(CC(C)(C)C)cc32)ccc1F", "Beta Secretase enzyme (BACE) (Homo sapiens, UniProt P56817)", 4.49),
    ("CNc1nc(CC(C)(C)C)cc2c1OC1(CCC1)C[C@@H]2NC[C@@H](O)[C@H](Cc1ccc2c(c1)OCO2)NC(=O)[C@@H](C)OC", "Beta Secretase enzyme (BACE) (Homo sapiens, UniProt P56817)", 41.1),
]

###

Biological target: UniProt:P56817
Assay: In vitro enzymatic BACE FRET (fluorescence resonance energy transfer) assay
Assay type: biochemical
Settings: BACE enzyme assay; read-out: BACE1 FRET assay
pIC50: −log10 of the molar value.
attribute_measured: pIC50

# compound, attribute_measured, reported_measurement
data = [
    ("COCC(=O)N[C@@H](Cc1ccc(F)cc1)[C@H](O)CN[C@H]1CC2(CCC2)Oc2c1cc(CC(C)(C)C)nc2C#N", "pIC50", 7.36),
    ("CC(C)(C)Cc1cnc2c(c1)[C@@H](NC[C@@H](O)[C@H](Cc1ccc3c(c1)OCO3)NC(=O)C1CCO1)CC1(CCC1)O2 (stereo partly shown)", "pIC50", 7.68),
    ("COCC(=O)N[C@@H](Cc1cc(F)cc(F)c1)[C@H](O)CN[C@H]1CC2(CCC2)Oc2c1cc(CC(C)(C)C)nc2-c1ccncc1", "pIC50", 8.00),
    ("COCC(=O)N[C@@H](Cc1cc(F)cc(F)c1)[C@H](O)CN[C@H]1CC2(CCC2)Oc2c1cc(CC(C)(C)C)nc2Nc1cccnc1", "pIC50", 7.60),
    ("COCC(=O)N[C@@H](Cc1cccc(F)c1)[C@H](O)CN[C@H]1CC2(CCC2)Oc2c(Br)cc(CC(C)C)cc21", "pIC50", 8.52),
    ("COCC(=O)N[C@@H](Cc1ccc2c(c1)OCO2)[C@H](O)CN[C@H]1CC2(CCC2)Oc2ccc(C[C@@H](C)F)cc21 [compound 498]", "pIC50", 6.57),
    ("COCC(=O)N[C@@H](Cc1cccc(F)c1)[C@H](O)CN[C@H]1CC2(CCC2)Oc2c1cc(Cl)cc2-n1ccnc1", "pIC50", 6.84),
    ("COCC(=O)N[C@@H](Cc1cccc(F)c1)[C@H](O)CN[C@H]1CC2(CCC2)Oc2c(-c3ccncc3)cc(CC(C)(C)Cl)cc21", "pIC50", 7.72),
    ("COCC(=O)N[C@@H](Cc1cccc(F)c1)[C@H](O)CN[C@H]1CC2(CCC2)Oc2c1cc(CC(C)(C)C)nc2-n1ccnc1", "pIC50", 7.85),
    ("CO[C@H](C)C(=O)N[C@@H](Cc1ccc(F)cc1)[C@H](O)CN[C@H]1CC2(CCC2)Oc2c1cc(CC(C)(C)C)nc2-c1ccncc1", "pIC50", 6.65),
    ("CO[C@H](C)C(=O)N[C@@H](Cc1cc(F)cc(F)c1)[C@H](O)CN[C@H]1CC2(CCC2)Oc2c(-c3ccncc3)cc(Cl)cc21", "pIC50", 7.04),
    ("COCC(=O)N[C@@H](Cc1cc(F)cc(F)c1)[C@H](O)CN[C@H]1CC2(CCC2)Oc2c(-c3cccnc3)cc(CC(C)(C)C)cc21", "pIC50", 8.15),
    ("CO[C@H](C)C(=O)N[C@@H](Cc1cc(F)cc(F)c1)[C@H](O)CN[C@H]1CC2(CCC2)Oc2ncc(CC(C)(C)C#N)cc21", "pIC50", 8.15),
]
